Structures can show the parent of a compound that is named as a salt.
// endpoint IC50 / system RIPK2 (Homo sapiens)
experimental readout: IC50 (nM)

Identify measured IC50 corresponding to Cc1n[nH]c(Nc2ccnc3cc(OC[C@@H](C)O)c(S(=O)(=O)C(C)(C)C)cc23)c1C [2(R), hydrochloride]
3.16

Answer with the recorded IC50 for the molecule listed here: Cc1n[nH]c(Nc2ccnc3cc(OC[C@H](C)O)c(S(=O)(=O)C(C)(C)C)cc23)c1C [2(S), hydrochloride]
3.16
